Test system: UACC-257
METHOD: NCI tumour cell line growth inhibition, 48 h
The source made the active and inactive calls. Rule as the data show it: active = GI50 up to about 1.1 µM and inactive = higher.
QUANTITY: GI50

COMPOUND | ASSAY SYSTEM | GI50
COc1ccc(/C(=N/OCCCC(=O)O)c2cccs2)cc1 | UACC-257 | > 100 µM (inactive)
CC(=O)O[C@H]1CCC2[C@@H]3CCC4C(=O)c5oncc5C[C@]4(C)C3CC[C@@]21C (stereo not given in full) | UACC-257 | > 100 µM (inactive)
CN1CCN(Cn2nc(COc3ccccc3Cl)n(/N=C/c3ccc(-c4ccc(Cl)cc4Cl)o3)c2=S)CC1 | UACC-257 | 34.8 µM (inactive)

Please state recorded GI50 (tested on UACC-257) of C=C(C)[C@@H]1CCC2=C[C@H](OC2=O)[C@@]2(C)C[C@@H]2C2=CC(C)=C(O2)[C@H]1O 39.1 µM (inactive)

Now the compound CC(NC(=O)c1c(O)[nH]c(=S)[nH]c1=O)c1ccc([N+](=O)[O-])cc1 (stereo not given) > 100 µM (inactive)

* * *

Listed molecules paired with reported GI50
System: HOP-92
METHOD: NCI tumour cell line growth inhibition, 48 h
Activity calls are given as the source filed them. No stated cut-off is given here; in the data, active = GI50 up to about 1.1 µM and inactive = higher.

MOLECULE | GI50
CC[C@]1(c2ccc3c(c2)OCO3)C=[N+]([O-])O[C@H](OC2CCCC2(c2ccccc2)c2ccccc2)[C@@H]1OC(C)=O (some centres undefined) | 2.09 µM (inactive)

// lookup GI50 for COc1ccc(N2C(=O)CSC2c2cc3cc(Br)ccc3nc2Cl)cc1 (centres undefined) > 50 µM (inactive)

Now the molecule CCCCCCCCCCCC(=O)OCCOCCOCCOCCOCCOCc1ccc(OC)cc1 > 100 µM (inactive)

Now the molecule COc1cc(/C=C2/C(=O)N(C(=O)OCc3ccccc3)C(Cc3cc(OC)c(OC)c(C)c3OC)C(=O)N2Cc2ccccc2)c(OC)c(C)c1OC (centres undefined) 2.64 µM (inactive)

Now the molecule NS(=O)(=O)c1ccc(NC(=S)NC(=O)Nc2ccc(Cl)c(Cl)c2)cc1 26.5 µM (inactive)

Now the molecule C/C=C/C=C/C1=NN(c2cccc(S(=O)(=O)O)c2)C2(C1)SCC(=O)N2c1nc2ccccc2s1 (centres undefined) 26.2 µM (inactive)

Now the molecule COc1ccc2c(c1[N+](=O)[O-])CC[C@@H]1[C@@H]2CC[C@]2(C)C(=O)CC[C@@H]12 21.4 µM (inactive)

Now the molecule COc1ccc(OC)c(C2CCc3cnc4nc(N)nc(N)c4c3C2)c1 (centres undefined) > 100 µM (inactive)

Now the molecule O=C(CCC(=O)Nc1ccc(Cl)c(Cl)c1)CC(=O)c1ccc(Br)cc1 > 100 µM (inactive)

* * *

Listed compounds paired with reported GI50
Tested on: SNB-19
METHOD: NCI tumour cell line growth inhibition, 48 h
Activity calls are given as the source filed them. No stated cut-off is given here; in the data, active = GI50 up to about 1.1 µM and inactive = higher.

COMPOUND | QUANTITY | VAL
CCOP(=O)(OCC)C(Nc1ccc(F)cc1)c1ccccc1 (stereo not drawn) | GI50 | > 100 µM (inactive)
O=C1Nc2ccccc2/C1=N/N1C(=O)/C(=C/c2ccccc2S)N=C1c1ccccc1 | GI50 | > 100 µM (inactive)
COC(=O)C1=C(N)C2=C(N)Oc3ccccc3C2CC1=C(C#N)C#N (stereo not drawn) | GI50 | 18.6 µM (inactive)
CSc1c(C#N)c(N)n2c1C(=O)N(c1ccccc1)C2=S | GI50 | > 100 µM (inactive)
NNC(=O)COc1nc(-c2cccs2)nc2ccc(I)cc12 | GI50 | 13.4 µM (inactive)
CC1=NN(c2nc(N)nc(-c3sccc3N)n2)C(C)(C)C1 | GI50 | > 100 µM (inactive)
CCCCCCCCCCCCCCCC(=O)OC1C(O)C(O)C(O)C(O)C12CO2 (stereo not drawn) | GI50 | > 100 µM (inactive)
CC(C)(C)NC(=O)NC12CC3CC(CC(F)(C3)C1)C2 | GI50 | > 100 µM (inactive)
COc1cc(/C=C2\C(=O)N(C(=O)Cc3ccccc3)N=C2C)cc(OC)c1OC | GI50 | > 100 µM (inactive)
CCOc1ccc2[nH]c3c(C)c4ccncc4c(C)c3c2c1 | GI50 | 1.45 µM (inactive)

// lookup GI50 for N#CC(C(=O)/C(=N\NC(N)=O)C(C#N)c1ccc(Cl)cc1)c1ccc(Cl)cc1 (stereo not drawn) > 100 µM (inactive)

Now the compound O=C(NCCCCCCO)c1cccc2cc3ccccc3nc12 15.8 µM (inactive)

Now the compound O=C(/C=C/c1ccccc1F)C(c1ccccc1)c1ccccc1 2.14 µM (inactive)

Data credit: ChEMBL document CHEMBL1201862
